assay: protein stability index of a GFP-peptide fusion (yeast GPS) (PSI 1-4); higher = more stable; sorted into four equal gates, so the index is relative within each strain; conditions: pdr5∆
Measurement Label: protein stability index
Lab note: record just the number, no unit beside it.

Exam item: State its protein stability index for this sequence: AALDITNVQRIAAYIRR [SMC1]
Marked response: 3.07

Exam item: Return protein stability index for the following sequence: TRLKSLLKPFHVKVNDK [SIR3]
Marked response: 2.96

Exam item: Identify measured protein stability index associated with LEELAETFQDTFSGALG [FAS2]
Marked response: 3.06

Exam item: Give recorded protein stability index. SVLYPDELEDDTLNETN [RRP43]
Marked response: 3.08

Exam item: Report protein stability index for LVSLLDENDSKKNNAAS [YAR002W/NUP60]
Marked response: 2.92

Exam item: Answer with the recorded protein stability index of HVESDKITAKTQHEEEE [IRR1] only.
Marked response: 2.96

Exam item: Supply protein stability index value. Item: GSARTRWEMEAFGEFSL [FAS2]
Marked response: 2.92

Exam item: Give reported protein stability index value for PTSVKLLKTTVPIVSKK [POP3]
Marked response: 2.94

Exam item: Identify the reported protein stability index for the following entry. TSTEKLYKLNDKIAVAV [PRE9]
Marked response: 2.93

* * *

experiment: protein stability index of a GFP-peptide fusion (yeast GPS) (PSI 1-4); higher = more stable; sorted into four equal gates, so the index is relative within each strain; conditions: doa10∆
Quick rule for you: protein stability index at 3 or higher means MET, lower means NOT MET.

Exam item: Reported protein stability index reaches at least 3 for DAMVTRTPVIISLRNNH [SMD2] ?
Marked response: NOT MET

Exam item: Determine whether this sequence has protein stability index no lower than 3: GETMWVPIKSSKSGRIF [RPN13]
Marked response: NOT MET

Exam item: Would you say ASKTNLRLTDVTNSLSN [GAL11] shows protein stability index at minimum 3?
Marked response: MET

Exam item: For this sequence, is measured protein stability index 3 or higher? STISAREIQTAVRLILP [HTB1]
Marked response: NOT MET

Exam item: Does the reported protein stability index for KPVMEVTSSFFYRGNYT [FAS1] fall at or above the 3 mark?
Marked response: NOT MET

Exam item: Entry NSIRAREVENSVSLLNS [SMC1] : is its protein stability index no less than 3?
Marked response: NOT MET

Exam item: Test whether the sequence DSTNLSDDAAQFMKRFP [ECM29] records protein stability index of 3 or higher.
Marked response: NOT MET

Exam item: Does the sequence LPKVRIRTRRAAELLDK [DIS3] have recorded protein stability index that is 3 or more?
Marked response: NOT MET

Exam item: decide whether the reported protein stability index for LSNFNADINLEESIRES [SIR3] is at least 3.
Marked response: MET

Exam item: Is it the case that VDIEYTRGRNIIMHKDV [RET1] has protein stability index reaching or exceeding 3?
Marked response: NOT MET

Exam item: In plain terms: is recorded protein stability index at least 3 for LQDELKELQLEKESVEK [SMC3] ?
Marked response: MET

Exam item: Answer whether protein stability index of AKKLIQSLPPTLKVNRL [RPL38] is greater than or equal to 3.
Marked response: NOT MET

Exam item: Reported protein stability index at or above 3? ADEPVKASLLLHVLVAH [FAS2]
Marked response: NOT MET

Exam item: I'd appreciate it if you could say whether KEISARRYKLLTATPNS [POP1] has protein stability index at least equal to 3.
Marked response: NOT MET

Exam item: Can KAEMPPEHLRKIINTHS [PRP8] be said to have protein stability index at or above 3?
Marked response: NOT MET

Exam item: Hi, just wondering whether LKQNAIRARIPFYGSYT [SRP54] shows protein stability index of 3 or higher.
Marked response: NOT MET

* * *

experiment: protein stability index of a GFP-peptide fusion (yeast GPS) (PSI 1-4); higher = more stable; sorted into four equal gates, so the index is relative within each strain; details: ubr1∆
Measurement Label: protein stability index
Could you keep your reply to the number by itself?

Exam item: Identify protein stability index associated with the sequence NKNLPFVWLSSEENIGS [SWI1]
Marked response: 1.74

Exam item: Consider the sequence NTIIRDGSKMLKRADYT [RPN14] . State its measured protein stability index.
Marked response: 2.2

Exam item: Complete the entry with protein stability index for DRNNSTNQIFQSRRYNL [SIN4]
Marked response: 2.83

Exam item: Give the value of protein stability index reported for the following: PPAYALLGSCQTDGMGL [RPC25]
Marked response: 2.41

Exam item: Tell me its protein stability index given MTEHETKDKAKKIREIY [BRR2] as the entry.
Marked response: 2.35

Exam item: Specify protein stability index for SNQLISNYAASNSMDRS [SWI1] and stop.
Marked response: 3.09

Exam item: Answer with the recorded protein stability index of KIHQQLLFKARLQQQQA [GAL11] only.
Marked response: 1.33

Exam item: Give recorded protein stability index. SKEVRGSKIRVMWGKVT [RPL33A]
Marked response: 2.6

Exam item: Supply protein stability index value. Item: TCDEIQNFENDFSLRYI [REC8]
Marked response: 2.88

Exam item: Indicate its recorded protein stability index; the sequence in question is NATEVQKESDAKNETNS [ITC1]
Marked response: 2.59

Exam item: Give the measured protein stability index for AELLNEWHSSLTLKEAE [PUP2]
Marked response: 3.02

Exam item: Return protein stability index for the following sequence: EENNYQYGYSGSSAGMN [SNF6]
Marked response: 2.5

Exam item: Read the entry VQDALLTNQLYKNHELL [SNF2] and write its reported protein stability index.
Marked response: 3.14

Exam item: Given the sequence GSAITGPVGKECADLWP [RPL23A] , write its reported protein stability index.
Marked response: 2.64

Exam item: Answer with reported protein stability index of AAIHAKRVTIQKKDIKL [HHT1]
Marked response: 3.1

Exam item: Read off the recorded protein stability index for FGATTNDDKKTEPDKPA [YJL041W/NSP1]
Marked response: 2.65

* * *

Provide the recorded protein stability index for the entries that follow.
experiment: protein stability index of a GFP-peptide fusion (yeast GPS) (PSI 1-4); higher = more stable; sorted into four equal gates, so the index is relative within each strain; settings: doa10∆
Please give the numeric answer without any surrounding text.

Exam item: Give recorded protein stability index. PSQTLFSISYKPPTQKT [SRP21]
Marked response: 2.23

Exam item: Item EKKQKTESQDVETRVQN [DPB4] : provide protein stability index
Marked response: 3.52

Exam item: Identify the reported protein stability index for the following entry. PAFSNSNGFNNVTFGSK [YMR153W/NUP53]
Marked response: 2.68

* * *

assay: protein stability index of a GFP-peptide fusion (yeast GPS) (PSI 1-4); higher = more stable; sorted into four equal gates, so the index is relative within each strain; details: san1∆
Measurement Label: protein stability index
Just the number, please, no unit after it.

Exam item: Please report protein stability index for the following sequence: ELGEIIDEDIGNNVQEN [RMP1]
Marked response: 3.02

Exam item: Report protein stability index for DKTLRLWDVATGETYQR [ASC1]
Marked response: 2.18

Exam item: Give protein stability index for the following sequence: EYNRLKVQDAIEEEIFD [LIN1]
Marked response: 2.85

Exam item: Please list protein stability index recorded for the sequence LISDQLLEFFELVFSKG [YML103C/NUP188]
Marked response: 3.1

Exam item: Tell us which protein stability index value is on record for EDMETQASDPSKKKKNI [RPC53]
Marked response: 3.24

Exam item: Determine from records and report protein stability index for GAALKDIEIVRVNKNAP [FAS2]
Marked response: 3.21

Exam item: Provide measured protein stability index value, entry: LKNPEIFQRVGIKPPKG [RPT4]
Marked response: 2.45

Exam item: Look up protein stability index of SYKRIYGEYPPTKLLVS [PRE8] and report it.
Marked response: 2.75

Exam item: Give a short answer stating reported protein stability index for LTAIPILLEPIYEVDIT [SNU114] .
Marked response: 1.94

* * *

assay: protein stability index of a GFP-peptide fusion (yeast GPS) (PSI 1-4); higher = more stable; sorted into four equal gates, so the index is relative within each strain; details: ubr1∆
Measurement Label: protein stability index
Kindly provide the number alone.

Exam item: Please report protein stability index for the following sequence: HPKIVKKHTKKFKRHHS [RPL32]
Marked response: 3.02

Exam item: Provide only the value of recorded protein stability index for QSESRQKRQLHDISKTE [SNU114]
Marked response: 3.04

Exam item: Return protein stability index for the following sequence: SPSYSPTSPAYSPTSPS [RPO21]
Marked response: 3.08

* * *

assay: protein stability index of a GFP-peptide fusion (yeast GPS) (PSI 1-4); higher = more stable; sorted into four equal gates, so the index is relative within each strain; conditions: pdr5∆
Label TRUE when protein stability index >= 3; otherwise FALSE.

Exam item: Determine whether measured protein stability index meets or exceeds 3 for NTTKPAFGGLNFGGGNN [YJL041W/NSP1]
Marked response: TRUE

Exam item: I'd appreciate it if you could say whether IYQTLIALNLDTTVNDC [SNF2] has protein stability index at least equal to 3.
Marked response: FALSE

Exam item: Record TASSEASAGSKEGASTN [YMR153W/NUP53] ; criterion: protein stability index no lower than 3. Met?
Marked response: TRUE

Exam item: API: above_or_equal(metric=protein stability index, cutoff=3) for item PAFSFNSSVGNKTDAQA [YJL041W/NSP1]
Marked response: TRUE

Exam item: Textbook exercise: given the entry IYDFHKMENLMRLIKRV [YJL039C/NUP192] , state whether its protein stability index is greater than or equal to 3.
Marked response: FALSE

Exam item: Is protein stability index at least 3? Consider EDRNQRIKEMYWKLWID [FAS1]
Marked response: TRUE

Exam item: Hello, I need to know if DVTAIQTWSYLSLYSTD [ECM29] has measured protein stability index not below 3. Thanks!
Marked response: FALSE

Measured values drawn from the supplement of paper PMC9732359 for this set.
